Each record here notes measured inhibition at 80 µM.
# Tested on: Aβ1-42 (Homo sapiens, UniProt P05067)
# Construct: Amyloid β-peptide (1–42), Aβ1-42, was purchased from GeneCust; purchased GeneCust
# Sequence (P05067 672-713 limits assumed): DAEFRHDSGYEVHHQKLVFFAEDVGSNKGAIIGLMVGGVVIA
# Run description: biochemical
# Test settings: self-mediated Aβ42 aggregation without copper; inhibitor 80 µM; ThT fluorescence; read-out: Aβ aggregation inhibition, Self-Aβ aggr
Entry rule: numbers only, all in %.

Some entries whose results are on file:
COc1cccc2cc(C(=O)NCCCCNc3c4c(nc5cc(Cl)ccc35)CCCC4)oc12 :: 64.4
O=C(NCCCCNc1c2c(nc3cc(Cl)ccc13)CCCC2)c1cc2cccc(O)c2o1 :: 43.4
O=C(NCCCCNc1c2c(nc3ccccc13)CCCC2)c1cc2ccccc2o1 :: 51.5

Now look at this one.
If you can, please state the reported inhibition at 80 µM value of O=C(NCCCCNc1c2c(nc3cc(Cl)ccc13)CCCC2)c1cc2ccccc2o1 . 43

###

Each record here notes measured highest non-toxic concentration selected from dose-response screening.
# Tested on: SH-SY5Y cells
# Run description: Dose-response screening for non-toxic concentrations, MTT reduction assay
# Type: cell-based, human
# Test settings: 10 µM to 40 µM, 25 h
# Description: The neuroprotective effect of these new multi-target drugs designed for AD was evaluated using SH-SY5Y cells treated with Aβ1-42 peptides or ascorbate/iron. […] Figure 7. […] Cells were treated with varying concentration of TAC-BF conjugates (from 10 μM to 40 μM) for 25 h and cell viability was determined using the MTT reduction assay. […] Cell viability was determined by the MTT (3–(4,5-dimethylthiazol-2-yl)-2,5-diphenyltetrazolium bromide) reduction test. […] The absorbance was measured at 570 nm[51]. […]
Entry rule: numbers only, all in µM.

Some entries whose results are on file:
O=C(NCCCNc1c2c(nc3cc(Cl)ccc13)CCCC2)c1cc2cccc(O)c2o1 :: 20
COc1cccc2cc(C(=O)NCCCNc3c4c(nc5cc(Cl)ccc35)CCCC4)oc12 :: 20
O=C(NCCCCNc1c2c(nc3cc(Cl)ccc13)CCCC2)c1cc2cccc(O)c2o1 :: 35

If you can, please state the reported highest non-toxic concentration selected from dose-response screening value of COc1cccc2cc(C(=O)NCCCCNc3c4c(nc5ccccc35)CCCC4)oc12 . 20

Then what about the compound COc1cccc2cc(C(=O)NCCCCNc3c4c(nc5cc(Cl)ccc35)CCCC4)oc12 ? 20

Then what about the compound O=C(NCCCNc1c2c(nc3ccccc13)CCCC2)c1cc2cccc(O)c2o1 ? 35

###

# Tested on: AChE (Electrophorus electricus, UniProt O42275)
# Construct: extracted from Electrophorus electricus (electric eel); purchased Sigma-Aldrich; host or cells: Electrophorus electricus (extracted)
# Sequence (O42275 24-633): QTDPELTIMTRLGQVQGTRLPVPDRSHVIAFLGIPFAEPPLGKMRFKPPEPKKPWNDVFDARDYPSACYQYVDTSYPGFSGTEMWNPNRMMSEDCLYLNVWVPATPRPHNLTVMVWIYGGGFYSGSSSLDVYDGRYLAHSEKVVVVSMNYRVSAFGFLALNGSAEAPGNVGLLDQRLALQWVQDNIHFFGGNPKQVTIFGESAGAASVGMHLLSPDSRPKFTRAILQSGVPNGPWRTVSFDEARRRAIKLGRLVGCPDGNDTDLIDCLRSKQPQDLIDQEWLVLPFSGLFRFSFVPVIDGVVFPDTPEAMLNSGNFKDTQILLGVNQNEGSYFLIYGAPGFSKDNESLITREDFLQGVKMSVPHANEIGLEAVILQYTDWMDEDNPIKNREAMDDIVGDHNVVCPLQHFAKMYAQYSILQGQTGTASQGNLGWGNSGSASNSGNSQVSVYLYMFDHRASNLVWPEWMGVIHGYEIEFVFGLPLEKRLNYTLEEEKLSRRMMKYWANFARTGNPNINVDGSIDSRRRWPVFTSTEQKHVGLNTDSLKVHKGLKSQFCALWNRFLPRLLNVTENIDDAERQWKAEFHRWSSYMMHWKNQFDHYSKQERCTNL
# Run description: biochemical
# Set-up: species or system Electrophorus electricus (electric eel)
# Test settings: AChE from Electric eel; mean of five independent experiments; read-out: AChE inhibition IC50
Each record here notes measured pIC50.
When answering, recall that pIC50 equals minus log10 of the concentration in mol/L, and write that number alone.

O=C(NCCCCNc1c2c(nc3ccccc13)CCCC2)c1cc2ccccc2o1 :: 6.14
O=C(NCCCCNc1c2c(nc3cc(Cl)ccc13)CCCC2)c1cc2ccccc2o1 :: 6.47
COc1cccc2cc(C(=O)NCCCCNc3c4c(nc5cc(Cl)ccc35)CCCC4)oc12 :: 6.17
COc1cccc2cc(C(=O)NCCCNc3c4c(nc5ccccc35)CCCC4)oc12 :: 6.44

If you can, please state the reported pIC50 value of COc1cccc2cc(C(=O)NCCCNc3c4c(nc5cc(Cl)ccc35)CCCC4)oc12 . 6.89

Then what about the molecule O=C(NCCCNc1c2c(nc3cc(Cl)ccc13)CCCC2)c1cc2ccccc2o1 ? 6.92

Then what about the molecule O=C(NCCCNc1c2c(nc3ccccc13)CCCC2)c1cc2cccc(O)c2o1 ? 6.09

Then what about the molecule O=C(NCCCNc1c2c(nc3ccccc13)CCCC2)c1cc2ccccc2o1 ? 6.24

Then what about the molecule O=C(NCCCCNc1c2c(nc3cc(Cl)ccc13)CCCC2)c1cc2cccc(O)c2o1 ? 6.21

Then what about the molecule O=C(NCCCCNc1c2c(nc3ccccc13)CCCC2)c1cc2cccc(O)c2o1 ? 6.01

###

Each record here notes measured inhibition at 80 µM.
# Tested on: Aβ1-42 (Homo sapiens)
# Construct: Amyloid β-peptide (1–42), Aβ1-42, was purchased from GeneCust; purchased GeneCust
# Run description: biochemical
# Test settings: self-mediated Aβ42 aggregation without copper; inhibitor 80 µM; ThT fluorescence; read-out: Aβ aggregation inhibition, Self-Aβ aggr
Entry rule: numbers only, all in %.

Some entries whose results are on file:
COc1cccc2cc(C(=O)NCCCNc3c4c(nc5ccccc35)CCCC4)oc12 [Compound 17] :: 57.5
COc1cccc2cc(C(=O)NCCCNc3c4c(nc5cc(Cl)ccc35)CCCC4)oc12 [Compound 19] :: 57.8
O=C(NCCCNc1c2c(nc3cc(Cl)ccc13)CCCC2)c1cc2ccccc2o1 [Compound 15] :: 51
O=C(NCCCNc1c2c(nc3ccccc13)CCCC2)c1cc2cccc(O)c2o1 [Compound 21] :: 44
O=C(NCCCCNc1c2c(nc3ccccc13)CCCC2)c1cc2cccc(O)c2o1 [Compound 22] :: 30.4

Now look at this one.
If you can, please state the reported inhibition at 80 µM value of O=C(NCCCNc1c2c(nc3ccccc13)CCCC2)c1cc2ccccc2o1 [Compound 13] . 60.6
